Tested on: SNU-387 (Hepatocellular Carcinoma);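 note: after 72 h of two-drug dosing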
ASSAY COMMENT: Bliss excess, mean over the matrix (fraction); higher = more synergy
QUANTITY: Bliss excess

Bliss excess lookup needed for Cn1cnc2c(F)c(Nc3ccc(Br)cc3Cl)c(C(=O)NOCCO)cc21 [Selumetinib] + CC(C)n1c(=O)n(C)c2cnc3cc(F)c(-c4ccc(OCCCN5CCCCC5)nc4)cc3c21 [AZD1390] (first compound max 10 µM, 7x7, partner max 0.3 µM) , thanks. -0.0512

Bliss excess lookup needed for Cc1cc2ncnn2cc1Nc1ncc2c(n1)n(C1CCOCC1)c(=O)n2C [AZD7648] + CCN(CCO)CCCOc1ccc2c(Nc3cc(CC(=O)Nc4cccc(F)c4)[nH]n3)ncnc2c1 [AZD2811] (first compound max 10 µM, 7x7, partner max 1 µM) , thanks. -0.0345

Bliss excess lookup needed for C=CCn1c(=O)c2cnc(Nc3ccc(N4CCN(C)CC4)cc3)nc2n1-c1cccc(C(C)(C)O)n1 [AZD1775] + Nc1ccn([C@@H]2O[C@H](CO)[C@@H](O)C2(F)F)c(=O)n1 [Gemcitabine] (first compound max 1 µM, partner max 0.3 µM) , thanks. -0.0035

Bliss excess lookup needed for CCN(CCO)CCCOc1ccc2c(Nc3cc(CC(=O)Nc4cccc(F)c4)[nH]n3)ncnc2c1 [AZD2811] + C[C@@H]1COCCN1C2=NC(=NC(=C2)C3(CC3)[S@](=N)(=O)C)C4=C5C=CNC5=NC=C4 [AZD6738] (first compound max 1 µM, 7x7, partner max 10 µM) , thanks. -0.0864
